- Target desc: eIF-2-alpha kinase GCN2 (Homo sapiens, UniProt Q9P2K8)
- Sequence (Q9P2K8 whole entry): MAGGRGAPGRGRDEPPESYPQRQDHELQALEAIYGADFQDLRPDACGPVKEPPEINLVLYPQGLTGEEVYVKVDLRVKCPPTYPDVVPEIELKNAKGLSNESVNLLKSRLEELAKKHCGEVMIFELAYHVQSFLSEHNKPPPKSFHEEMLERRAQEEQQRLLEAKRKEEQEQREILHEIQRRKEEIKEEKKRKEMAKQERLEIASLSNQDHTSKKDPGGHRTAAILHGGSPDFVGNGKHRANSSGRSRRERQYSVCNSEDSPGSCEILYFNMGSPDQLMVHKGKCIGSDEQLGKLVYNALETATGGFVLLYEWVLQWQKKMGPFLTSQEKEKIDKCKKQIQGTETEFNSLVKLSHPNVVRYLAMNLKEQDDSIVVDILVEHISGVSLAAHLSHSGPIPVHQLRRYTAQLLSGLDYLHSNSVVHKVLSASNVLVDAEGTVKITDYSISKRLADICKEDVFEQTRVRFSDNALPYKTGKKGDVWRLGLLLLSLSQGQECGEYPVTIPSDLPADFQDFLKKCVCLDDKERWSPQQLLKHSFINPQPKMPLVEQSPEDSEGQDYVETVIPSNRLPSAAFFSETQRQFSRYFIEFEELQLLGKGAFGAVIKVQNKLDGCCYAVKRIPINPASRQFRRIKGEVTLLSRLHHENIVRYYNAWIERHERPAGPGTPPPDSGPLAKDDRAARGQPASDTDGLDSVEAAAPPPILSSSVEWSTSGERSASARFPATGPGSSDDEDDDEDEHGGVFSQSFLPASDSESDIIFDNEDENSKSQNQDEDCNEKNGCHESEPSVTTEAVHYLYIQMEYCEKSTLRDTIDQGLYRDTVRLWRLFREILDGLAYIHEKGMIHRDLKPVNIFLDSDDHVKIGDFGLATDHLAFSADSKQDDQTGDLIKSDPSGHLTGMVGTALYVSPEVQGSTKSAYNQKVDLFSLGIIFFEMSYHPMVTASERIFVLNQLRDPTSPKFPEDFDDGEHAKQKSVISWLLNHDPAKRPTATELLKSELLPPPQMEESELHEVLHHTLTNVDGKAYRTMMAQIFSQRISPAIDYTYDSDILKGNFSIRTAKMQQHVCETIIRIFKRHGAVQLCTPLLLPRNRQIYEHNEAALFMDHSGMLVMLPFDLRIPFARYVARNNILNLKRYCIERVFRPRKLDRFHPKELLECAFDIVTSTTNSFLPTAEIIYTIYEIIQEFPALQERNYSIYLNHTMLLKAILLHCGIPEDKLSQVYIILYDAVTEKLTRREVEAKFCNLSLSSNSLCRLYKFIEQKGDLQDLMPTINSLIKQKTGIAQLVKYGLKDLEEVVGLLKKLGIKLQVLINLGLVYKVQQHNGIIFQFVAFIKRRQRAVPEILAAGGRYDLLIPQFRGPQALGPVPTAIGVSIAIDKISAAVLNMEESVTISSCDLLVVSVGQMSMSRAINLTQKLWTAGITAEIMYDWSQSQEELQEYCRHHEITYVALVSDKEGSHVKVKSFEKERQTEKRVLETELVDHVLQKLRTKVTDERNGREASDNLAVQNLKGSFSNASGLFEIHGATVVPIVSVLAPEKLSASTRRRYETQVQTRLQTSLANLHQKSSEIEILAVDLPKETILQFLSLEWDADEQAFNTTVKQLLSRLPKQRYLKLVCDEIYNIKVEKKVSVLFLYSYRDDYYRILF
- Test method notes: Inhibition of GCN2 in human SK-OV-3 cells assessed as reduction in phosphorylation of eIF2alpha by cellular assay
- Type: cell-based
Assay metric: IC50 (nM)

- CNC(=O)[C@]1(C)CC[C@@H](Nc2ncc3c(Br)nn(-c4ccc(-c5nnc(C)s5)c(F)c4)c3n2)C1: 33

[1] COCCNC(=O)[C@H]1CC[C@@H](Nc2ncc3c(Br)nn(-c4ccc5ncccc5c4)c3n2)C1
[2] CNC(=O)[C@]1(C)CC[C@@H](Nc2ncc3c(Br)nn(-c4ccc(-c5nnc(C)s5)c(C#N)c4)c3n2)C1
## Input Parameter metric = IC50. Return the lower-valued option from 1 and 2 . Respond using the label that marks the chosen record.
## Output 2

[1] CNS(=O)(=O)[C@@H]1CC[C@@H](Nc2ncc3c(Br)nn(-c4ccc5ncccc5c4)c3n2)C1
[2] CNC(=O)[C@]1(C)CC[C@@H](Nc2ncc3c(Br)nn(-c4ccc(-c5nnc(C)s5)c(CCO)c4)c3n2)C1
## Input Parameter metric = IC50. Return the lower-valued option from 1 and 2 . Respond using the label that marks the chosen record.
## Output 2
